The reported numbers originate from ChEMBL document CHEMBL2016516.

test system: MCF7; experiment: Antiproliferative activity against human MCF7 cells after 48 hrs by MTT assay; format: functional, cell-based; conditions: MCF7, 48 h
Measured log10(IC50) values are reported for all entries that follow.
testReadout: log10(IC50) (log10 of the value in µg/mL)

{"columns": ["lineNotation", "log10(IC50)"],
 "data": [
  ["COc1ccc(C(=O)/C=C/c2cc(Br)ccc2Oc2c([N+](=O)[O-])cc(C(F)(F)F)cc2[N+](=O)[O-])cc1", 0.37],
  ["O=C(/C=C/c1cc(Br)ccc1Oc1c([N+](=O)[O-])cc(C(F)(F)F)cc1[N+](=O)[O-])c1ccc(Cl)cc1", 0.68],
  ["COc1ccc(C(=O)/C=C/c2cc(Br)cc(Br)c2Oc2c([N+](=O)[O-])cc(C(F)(F)F)cc2[N+](=O)[O-])cc1", 0.55],
  ["O=C(/C=C/c1cc(Br)cc(Br)c1Oc1c([N+](=O)[O-])cc(C(F)(F)F)cc1[N+](=O)[O-])c1ccc(Br)cc1", 0.46],
  ["O=C(/C=C/c1cc(Br)cc(Br)c1Oc1c([N+](=O)[O-])cc(C(F)(F)F)cc1[N+](=O)[O-])c1ccc(Cl)cc1", 0.83],
  ["COc1ccc(C(=O)/C=C/c2cc(Cl)cc(Cl)c2Oc2c([N+](=O)[O-])cc(C(F)(F)F)cc2[N+](=O)[O-])cc1", 0.43],
  ["O=C(/C=C/c1cc(Br)ccc1Oc1c([N+](=O)[O-])cc(C(F)(F)F)cc1[N+](=O)[O-])c1ccc(Br)cc1", 0.34],
  ["O=C(/C=C/c1cc(Cl)cc(Cl)c1Oc1c([N+](=O)[O-])cc(C(F)(F)F)cc1[N+](=O)[O-])c1ccc(F)cc1", 0.70],
  ["O=C(/C=C/c1cc(Cl)ccc1Oc1c([N+](=O)[O-])cc(C(F)(F)F)cc1[N+](=O)[O-])c1ccc(F)cc1", 0.71],
  ["O=C(/C=C/c1cc(Cl)cc(Cl)c1Oc1c([N+](=O)[O-])cc(C(F)(F)F)cc1[N+](=O)[O-])c1ccc(Br)cc1", 0.41],
  ["Cc1ccc(C(=O)/C=C/c2cc(Cl)cc(Cl)c2Oc2c([N+](=O)[O-])cc(C(F)(F)F)cc2[N+](=O)[O-])cc1", -0.15],
  ["O=C(/C=C/c1cc(Cl)ccc1Oc1c([N+](=O)[O-])cc(C(F)(F)F)cc1[N+](=O)[O-])c1ccc(Br)cc1", 0.15],
  ["O=C(/C=C/c1cc(Cl)cc(Cl)c1Oc1c([N+](=O)[O-])cc(C(F)(F)F)cc1[N+](=O)[O-])c1ccc(Cl)cc1", 0.66],
  ["COc1ccc(/C=C\\c2cc(OC)c(OC)c(OC)c2)cc1O", -0.37],
  ["COc1cc2c(c(OC)c1OC)-c1ccc(OC)c(=O)cc1[C@@H](NC(C)=O)CC2", -0.29]
]}
